Listed next: entries and their corresponding fold change of affinity.
System Under Test: T1, Human CD137 ECD (human)
T1 construct: also called 4-1BB
T1 sequence (chain, as listed by the source limits assumed): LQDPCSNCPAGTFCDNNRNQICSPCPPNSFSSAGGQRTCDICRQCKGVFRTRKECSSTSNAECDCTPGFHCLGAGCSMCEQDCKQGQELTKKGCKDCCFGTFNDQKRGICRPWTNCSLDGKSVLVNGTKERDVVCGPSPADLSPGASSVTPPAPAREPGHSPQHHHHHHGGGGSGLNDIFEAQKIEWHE
Test Summary: SPR, vs parent H183/L072
Property Name: fold change of affinity (fold)

INSERT INTO results (binder, property_name, numeric_readout) VALUES
  ('dBBDu183H V100iT / dBBDu072L (antibody, name in Kabat numbering, V domains shown, as m1, one VH change) VH: QVQLVESGGGLVQPGRSLRLSCAASGFTFSNAWMHWVRQAPGKGLEWVAQIKDKGNAYAAYYAPSVKGRFTISRDDSKNSIYLQMNSLKTEDTAVYYCHYVHYASASTVLPAFGTDAWGQGTTVTVSS VL: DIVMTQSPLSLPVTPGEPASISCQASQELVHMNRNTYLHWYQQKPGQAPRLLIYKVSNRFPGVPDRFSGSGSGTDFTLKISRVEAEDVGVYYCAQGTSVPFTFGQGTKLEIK', 'fold change of affinity', 0.2),
  ('dBBDu183H K64H / dBBDu072L (antibody, name in Kabat numbering, V domains shown, as m1, one VH change) VH: QVQLVESGGGLVQPGRSLRLSCAASGFTFSNAWMHWVRQAPGKGLEWVAQIKDKGNAYAAYYAPSVHGRFTISRDDSKNSIYLQMNSLKTEDTAVYYCHYVHYASASTVLPAFGVDAWGQGTTVTVSS VL: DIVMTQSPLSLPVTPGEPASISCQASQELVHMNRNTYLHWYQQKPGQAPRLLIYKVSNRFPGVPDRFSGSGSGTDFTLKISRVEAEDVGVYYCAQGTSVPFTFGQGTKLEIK', 'fold change of affinity', 1.1),
  ('dBBDu183H S99H / dBBDu072L (antibody, name in Kabat numbering, V domains shown, as m1, one VH change) VH: QVQLVESGGGLVQPGRSLRLSCAASGFTFSNAWMHWVRQAPGKGLEWVAQIKDKGNAYAAYYAPSVKGRFTISRDDSKNSIYLQMNSLKTEDTAVYYCHYVHYAHASTVLPAFGVDAWGQGTTVTVSS VL: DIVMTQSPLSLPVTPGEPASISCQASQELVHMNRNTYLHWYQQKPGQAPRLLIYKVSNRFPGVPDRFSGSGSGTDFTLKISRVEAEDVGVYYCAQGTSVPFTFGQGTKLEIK', 'fold change of affinity', 1.5);

Source of measurements: patent US20210388087A1
